Assay Details: inhibitors of TNFa-induced NFkB p65 translocation, primary screen, imaging, HUVEC, MLSMR starter and 10KST1 sets (AID 438);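 further: compound added about 3h40 before a 20 min TNFalpha stimulation; signal is the nuclear over cytoplasmic p65 intensity ratio per well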
Recorded Conditions: HUVEC TNFa-induced p65 nuclear translocation; at 2 µM, stronger effect = higher value, 0% TNFa-plus-vehicle, 100% no-TNFa wells
Reported Endpoint: inhibition (%)
Output spec: scalar in %, unitless text.

Look over these answered cases.
[[record]]
compound = "CCc1cc(=O)n2[nH]c(C)c(-c3ccccc3OC)c2n1"
reported_endpoint = "inhibition"
result_units = "%"
value = 2.8

[[record]]
compound = "O=c1[nH]cnc2c1nc(SCc1ccccc1)n2C1OC(CO)C(O)C1O (stereo not given)"
reported_endpoint = "inhibition"
result_units = "%"
value = 14.3

[[record]]
compound = "C=CCNC(=O)c1cccc(Br)c1"
reported_endpoint = "inhibition"
result_units = "%"
value = 6.3

[[record]]
compound = "CC(=O)c1ccccc1NS(=O)(=O)c1c(C)nn(-c2ccccc2)c1C"
reported_endpoint = "inhibition"
result_units = "%"
value = -2.4


input: State the recorded inhibition for this entry: COc1ccc(NC(=O)CSc2nnc(-c3ccccc3)n2N)cc1
output: 0

input: # inhibition lookup, item Cc1cc(C)nc(NC(=O)c2c(-c3c(Cl)cccc3Cl)noc2C)n1
output: 2

input: Which inhibition is listed for Cc1nc2c(-c3ccccc3)c(C)nn2c(C)c1CCC(=O)NCc1ccco1 ?
output: -1.1

input: Fill in: inhibition of C/C=C/Cn1c(SCCCc2ccccc2)nc2c1c(=O)[nH]c(=O)n2C is ___
output: -6.4

input: inhibition lookup needed for Cc1onc(-c2ccccc2)c1C(=O)Nc1sc2c(c1C(N)=O)CCC2 , thanks.
output: 4.8

input: Returns the measured inhibition for the input compound. Input: CCc1nc(N)c(C#N)c(-c2ccc(OC)c(OC)c2)c1C
output: -4.4
